Tested on: cancer stem cells
Experiment: Survival rate of cancer stem cells after test compound is added (flow cytometry, Annexin V-FITC/PI, clinical specimen)
Format: cell-based, patient
Conditions: Homo sapiens, 18 h, Lung cancer; 20.0 μM
Each record here notes measured viability at 20 µM.
Give the value in % but do not write % after it.

// below: answered compounds
C=C1C(=O)O[C@H]2[C@H]1CCC(C)=C1CC[C@@](C)(OC(=O)CCCc3cn(CCCCCCO)nn3)[C@@H]12 [Compound 21] :: 54
C=C1C(=O)O[C@@H]2[C@H]3C(C)=CC[C@@]34O[C@@]4(C)CC[C@@H]12 [Compound 50] :: 33
[2H][C@@]1(CN(C)C)C(=O)O[C@@H]2[C@@H]3[C@@H](CCC34CC4)C3(CC[C@H]21)CC3 [Compound 46] :: 76

// lookup viability at 20 µM for CN(C)C[C@@H]1C(=O)O[C@H]2[C@H]1CCC1(CC1)[C@@H]1CCC3(CC3)[C@H]21 [Compound 35]
78

Input C=C1C(=O)O[C@@H]2[C@@H]3[C@@H](CCC34CC4)C3(CC[C@@H]12)CC3 [Compound 26]
78

Input C=C1C(=O)O[C@@H]2[C@@H]3[C@@H](CC[C@@]3(C)O)[C@](C)(O)CC[C@@H]12 [Compound 49]
73

Input CC1=C2CC[C@@](C)(O)[C@@H]2[C@H]2OC(=O)[C@@H](CN(C)C)[C@@H]2CC1 [Compound 23]
78

====

System: cancer cells
Test: Survival rate of cancer cells after test compound is added (flow cytometry, Annexin V-FITC/PI, clinical specimen)
Assay type: cell-based, patient
Details: Homo sapiens, 18 h, Nasopharynx cancer; 20.0 μM; read-out: Survival rate (%) All cells (Stem cells and ordinary cells)
measuredMetric: viability at 20 µM (%)
Give the value in % but do not write % after it.

// below: answered compounds
CC1=C2CC[C@@](C)(O)[C@@H]2[C@H]2OC(=O)[C@@H](CN(C)C)[C@@H]2CC1 [Compound 23] :: 81
C=C1C(=O)O[C@H]2[C@H]1CCC(C)=C1CC[C@@](C)(OC(=O)CCCc3cn(CCCCCCO)nn3)[C@@H]12 [Compound 21] :: 56
C=C1CC[C@H]2C(=C)CC[C@H]3C(=C)C(=O)O[C@@H]3[C@@H]12 [Compound 25] :: 48
CN(C)C[C@@H]1C(=O)O[C@H]2[C@H]1CCC1(CC1)[C@@H]1CCC3(CC3)[C@H]21 [Compound 27] :: 85
CN(C)C[C@@H]1C(=O)O[C@H]2[C@H]1CCC1(CC1)[C@@H]1CCC3(CC3)[C@H]21 [Compound 35] :: 92

What measured viability at 20 µM is associated with C=C1C(=O)O[C@H]2[C@H]1CC[C@@](C)(OC)C1CC[C@@](C)(O)[C@@H]12 (stereo partly shown) [Compound 47] on cancer cells?
85

Input [2H][C@@]1(CN(C)C)C(=O)O[C@@H]2[C@@H]3[C@@H](CCC34CC4)C3(CC[C@H]21)CC3 [Compound 46]
81

Input C=C1C(=O)O[C@@H]2[C@@H]3[C@@H](CC[C@@]3(C)O)[C@](C)(O)CC[C@@H]12 [Compound 49]
86

Input C=C1C(=O)O[C@@H]2[C@H]3C(C)=CC[C@@]34O[C@@]4(C)CC[C@@H]12 [Compound 50]
48

Input CCOC(=O)[C@@H]1CCCN1C[C@@H]1C(=O)O[C@H]2[C@H]1CCC1(CC1)[C@@H]1CCC3(CC3)[C@H]21 [Compound 29]
85

Input C=C1C(=O)O[C@@H]2[C@@H]3[C@@H](CCC34CC4)C3(CC[C@@H]12)CC3 [Compound 26]
81

Input C=C1C(=O)O[C@@H]2[C@@H]3[C@@H](CC[C@@]3(C)O)C(=C)CC[C@@H]12 [Compound 48]
59

Input C=C1C(=O)O[C@H]2[C@H]1CC[C@]1(C)O[C@@]13CC[C@@](C)(O)[C@H]23 [Compound 24]
59

====

Test system: cancer cells
Assay: Survival rate of cancer cells after test compound is added (flow cytometry, Annexin V-FITC/PI, clinical specimen)
Format: cell-based, patient
Settings: Homo sapiens, 18 h, Children hepatoblastoma; 20.0 μM; read-out: Survival rate (%) All cells (Stem cells and ordinary cells)
Source text: […]
Each record here notes measured viability at 20 µM.
Give the value in % but do not write % after it.

// lookup viability at 20 µM for C=C1CC[C@H]2C(=C)CC[C@H]3C(=C)C(=O)O[C@@H]3[C@@H]12
47

Input C=C1C(=O)O[C@@H]2[C@@H]3[C@@H](CCC34CC4)C3(CC[C@@H]12)CC3
86

Input C=C1C(=O)O[C@H]2[C@H]1CC[C@]1(C)O[C@@]13CC[C@@](C)(O)[C@H]23
68

Input C=C1C(=O)O[C@H]2[C@H]1CCC(C)=C1CC[C@@](C)(OC(=O)CCCc3cn(CCCCCCO)nn3)[C@@H]12
66

Input C=C1C(=O)O[C@@H]2[C@H]3C(C)=CC[C@@]34O[C@@]4(C)CC[C@@H]12
47

Input CCOC(=O)[C@@H]1CCCN1C[C@@H]1C(=O)O[C@H]2[C@H]1CCC1(CC1)[C@@H]1CCC3(CC3)[C@H]21
89

Input CC1=C2CC[C@@](C)(O)[C@@H]2[C@H]2OC(=O)[C@@H](CN(C)C)[C@@H]2CC1
86

====

Each record here notes measured viability at 20 µM.
Test system: cancer stem cells
Experiment: Survival rate of cancer stem cells after test compound is added (flow cytometry, Annexin V-FITC/PI, clinical specimen)
Type: cell-based, patient
Conditions: Homo sapiens, 18 h, Brain tumor; 20.0 μM
Give the value in % but do not write % after it.

// below: answered molecules
C=C1C(=O)O[C@H]2[C@H]1CCC(C)=C1CC[C@@](C)(OC(=O)CCCc3cn(CCCCCCO)nn3)[C@@H]12 :: 54
C=C1C(=O)O[C@H]2[C@H]1CC[C@]1(C)O[C@@]13CC[C@@](C)(O)[C@H]23 :: 54

Next molecule, viability at 20 µM to be filled in.
What measured viability at 20 µM is associated with CCOC(=O)[C@@H]1CCCN1C[C@@H]1C(=O)O[C@H]2[C@H]1CCC1(CC1)[C@@H]1CCC3(CC3)[C@H]21 on cancer stem cells?
76

====

Tested on: cancer cells
Experiment: Survival rate of cancer cells after test compound is added (flow cytometry, Annexin V-FITC/PI, clinical specimen)
Format: cell-based, patient
Details: Homo sapiens, 18 h, Colorectal cancer; 10.0 μM; read-out: Survival rate (%) All cells (Stem cells and ordinary cells)
measuredMetric: viability at 10 µM (%)
Give the value in % but do not write % after it.

C=C1C(=O)O[C@@H]2[C@H]3C(C)=CC[C@@]34O[C@@]4(C)CC[C@@H]12 :: 76
C=C1C(=O)O[C@@H]2[C@@H]3[C@@H](CC[C@@]3(C)O)C(=C)CC[C@@H]12 :: 79
C=C1C(=O)O[C@H]2[C@H]1CC[C@@](C)(OC)C1CC[C@@](C)(O)[C@@H]12 (some centres unmarked) :: 88
C=C1C(=O)O[C@H]2[C@H]1CC[C@]1(C)O[C@@]13CC[C@@](C)(O)[C@H]23 :: 78

Next molecule, viability at 10 µM to be filled in.
// lookup viability at 10 µM for C=C1C(=O)O[C@@H]2[C@@H]3[C@@H](CCC34CC4)C3(CC[C@@H]12)CC3
87

====

Tested on: cancer stem cells
Test: Survival rate of cancer stem cells after test compound is added (flow cytometry, Annexin V-FITC/PI, clinical specimen)
Format: cell-based, patient
Details: Homo sapiens, 18 h, Children hepatoblastoma; 10.0 μM
Each record here notes measured viability at 10 µM.
Give the value in % but do not write % after it.

C=C1C(=O)O[C@@H]2[C@@H]3[C@@H](CCC34CC4)C3(CC[C@@H]12)CC3 :: 85
CN(C)C[C@@H]1C(=O)O[C@H]2[C@H]1CCC1(CC1)[C@@H]1CCC3(CC3)[C@H]21 :: 87
C=C1C(=O)O[C@H]2[C@H]1CC[C@@](C)(OC)C1CC[C@@](C)(O)[C@@H]12 (some centres unmarked) :: 85
C=C1C(=O)O[C@@H]2[C@@H]3[C@@H](CC[C@@]3(C)O)[C@](C)(O)CC[C@@H]12 :: 86

// lookup viability at 10 µM for CCOC(=O)[C@@H]1CCCN1C[C@@H]1C(=O)O[C@H]2[C@H]1CCC1(CC1)[C@@H]1CCC3(CC3)[C@H]21
85

====

System: cancer stem cells
Assay: Survival rate of cancer stem cells after test compound is added (flow cytometry, Annexin V-FITC/PI, clinical specimen)
Type: cell-based, patient
Conditions: Homo sapiens, 18 h, Liver cancer; 10.0 μM
Excerpt: […]
measuredMetric: viability at 10 µM
Respond with a number, then the unit of measure.

C=C1C(=O)O[C@@H]2[C@@H]3[C@@H](CCC34CC4)C3(CC[C@@H]12)CC3 [Compound 26] :: 82%

What measured viability at 10 µM is associated with C=C1C(=O)O[C@H]2[C@H]1CC[C@@](C)(OC)C1CC[C@@](C)(O)[C@@H]12 (stereo partly shown) [Compound 47] on cancer stem cells?
82%

Input C=C1C(=O)O[C@H]2[C@H]1CC[C@]1(C)O[C@@]13CC[C@@](C)(O)[C@H]23 [Compound 24]
74%

Input CC1=C2CC[C@@](C)(O)[C@@H]2[C@H]2OC(=O)[C@@H](CN(C)C)[C@@H]2CC1 [Compound 23]
82%
